Test system: ENR+CD organoids
Experiment: Primary screen: ATP (CellTiter-Glo 3D, CTG) cell number/viability, 2.5-D 384-well ENR+CD organoids
Settings: primary screen, dose 0.08 uM
Answer each item with its documented Dose.FC.CTG.

Reference set (3 entries):
CC1(C)CCC(CN2CCN(c3ccc(C(=O)NS(=O)(=O)c4ccc(NCC5CCOCC5)c([N+](=O)[O-])c4)c(Oc4cnc5[nH]ccc5c4)c3)CC2)=C(c2ccc(Cl)cc2)C1 [ABT-199 (GDC-0199)]; 0.019 log2 fold change
CCOC(=O)C1=C(COCCN)NC(C)=C(C(=O)OC)C1c1ccccc1Cl (centres unmarked) [Amlodipine]; −0.351 log2 fold change
CC(=O)Nc1cccc2c1c(Sc1ccc(Cl)cc1)c(C)n2CC(=O)O [AZD1981]; 0.400 log2 fold change

Give me Dose.FC.CTG for each of these molecules, listed below.
1. COc1cc(OC2CCN(C)CC2)ccc1Nc1ncc2c(n1)n(C1CCCC1)c(=O)n2C [AZ 3146]
2. Cc1ccccc1C(C(=O)NC1CCCCC1)N(C(=O)Cn1ccnc1C)c1cccc(F)c1 (centres unmarked) [AGI-5198]
3. COc1ccc2nc([S@@+]([O-])Cc3ncc(C)c(OC)c3C)[nH]c2c1 [Esomeprazole Sodium]
4. O=C(O)c1ccc(N2C(=O)/C(=C\c3ccc(-c4ccc([N+](=O)[O-])cc4)o3)C=C2c2ccccc2)cc1 [4E1RCat]
5. CC1C(=O)OC2C(O)C34C5CC(C(C)(C)C)C36C(OC(=O)C6O)OC4(C(=O)O5)C12O (centres unmarked) [Ginkgolide B]

Solution:
["−0.130 log2 fold change", "0.309 log2 fold change", "0.288 log2 fold change", "0.246 log2 fold change", "−0.076 log2 fold change"]

* * *

Test system: ENR+CD organoids (ISC to Paneth cell differentiation)
Test: Primary screen: CCh-stimulated lysozyme secretion LYZ.S, 2.5-D 384-well ENR+CD organoid differentiation
Type: cell-based, mouse
Conditions: primary screen; dose 0.08 uM; FC vs plate median
The following ranges of Dose.FC.LYZ.S define the classes used here: lower band (below 0.002 log2 fold change), central band (0.002 log2 fold change to below 0.09 log2 fold change), upper band (0.09 log2 fold change or more)

OCCn1cc(-c2cnc3nnn(Cc4ccc5ncccc5c4)c3n2)cn1; upper band
O=C(NOC[C@H](O)CO)c1ccc(F)c(F)c1Nc1ccc(I)cc1F; lower band
O=C(O)c1ccc(Nc2ncc3c(n2)-c2ccc(Cl)cc2C(c2c(F)cccc2F)=NC3)cc1; central band

Problem: For the record C[C@@H]1O[C@@H](O[C@H]2C[C@@H](O)[C@]3(CO)[C@H]4[C@H](O)C[C@]5(C)[C@@H](C6=CC(=O)OC6)CC[C@]5(O)[C@@H]4CC[C@]3(O)C2)[C@H](O)[C@H](O)[C@H]1O , report the class its Dose.FC.LYZ.S corresponds to.
Solution: central band

Problem: For the record O=C(O)Cn1nnc(-c2cc(N3CCC(Oc4cc(F)ccc4Br)CC3)no2)n1 , report the class its Dose.FC.LYZ.S corresponds to.
Solution: central band

Problem: For the record C1=N/C2=N/c3ccc(OCCN4CCCC4)c(c3)COC/C=C/COCc3cccc(c3)C(=C1)N2 [Pacritinib (SB1518)] , report the class its Dose.FC.LYZ.S corresponds to.
Solution: central band

Problem: For the record C[C@]1(O)C[C@@H](c2nc(-c3ccc4ccc(-c5ccccc5)nc4c3)c3c(N)nccn32)C1 , report the class its Dose.FC.LYZ.S corresponds to.
Solution: lower band

Problem: For the record CCc1cncnc1N1CCN(Cc2nc3ccc(C(F)(F)F)cc3[nH]2)CC1 , report the class its Dose.FC.LYZ.S corresponds to.
Solution: upper band

Problem: For the record CC(=O)c1cc([N+](=O)[O-])c(Sc2ccc(F)cc2F)s1 , report the class its Dose.FC.LYZ.S corresponds to.
Solution: lower band

Problem: For the record CN1C(=O)C(Cc2c[nH]c3ccccc23)NC1=S (centres unmarked) , report the class its Dose.FC.LYZ.S corresponds to.
Solution: central band

Problem: For the record Cc1sc2c(c1C)C(c1ccc(Cl)cc1)=N[C@@H](CC(=O)Nc1ccc(O)cc1)c1nnc(C)n1-2 , report the class its Dose.FC.LYZ.S corresponds to.
Solution: lower band

Problem: For the record O=C(NCCN1CCOCC1)c1ccc(Cl)cc1 [Moclobemide (Ro 111163)] , report the class its Dose.FC.LYZ.S corresponds to.
Solution: upper band

Problem: For the record CN(c1ncccc1CNc1nc(Nc2ccc3c(c2)CC(=O)N3)ncc1C(F)(F)F)S(C)(=O)=O , report the class its Dose.FC.LYZ.S corresponds to.
Solution: lower band

Problem: For the record Oc1cc(O)cc(/C=C/c2ccc(O)c(O)c2)c1 , report the class its Dose.FC.LYZ.S corresponds to.
Solution: upper band

Problem: For the record S=C=Nc1cccc(NC(=S)NCCCCNC(=S)Nc2cccc(N=C=S)c2)c1 , report the class its Dose.FC.LYZ.S corresponds to.
Solution: upper band

Problem: For the record Cc1cn(-c2cc(NC(=O)c3ccc(C)c(Nc4nccc(-c5cccnc5)n4)c3)cc(C(F)(F)F)c2)cn1 [Nilotinib (AMN-107), Nilotinib, reference compound] , report the class its Dose.FC.LYZ.S corresponds to.
Solution: upper band

* * *

System: ENR+CD organoids
Assay: Primary screen: ATP (CellTiter-Glo 3D, CTG) cell number/viability, 2.5-D 384-well ENR+CD organoids
Settings: primary screen, standard z score, dose 0.40 uM
endpoint.label: Z.CTG
One number for each entry.

Reference set (5 entries):
C[C@H](N[C@@H](CCc1ccccc1)C(=O)O)C(=O)N1CCC[C@H]1C(=O)O.O.O [Enalaprilat Dihydrate]; −0.296
Cc1ccc([C@@H]2O[C@H](CO)[C@@H](O)[C@H](O)[C@H]2O)cc1Cc1ccc(-c2ccc(F)cc2)s1; −0.235
CN[C@@H](C)C(=O)N[C@H](C(=O)N1CCC[C@H]1C(=O)Nc1snnc1-c1ccccc1)C1CCCCC1; 0.377
OC[C@H]1O[C@@H](c2ccc(Cl)c(Cc3ccc(O[C@H]4CCOC4)cc3)c2)[C@H](O)[C@@H](O)[C@@H]1O; −0.178
CCCCCCCCc1ccc(CCC(N)(CO)CO)cc1.Cl [Fingolimod (FTY720) HCl]; 0.245

Give me Z.CTG for each of these molecules, listed below.
1. Cn1cc(C2=C(c3cn(C4CCN(Cc5ccccn5)CC4)c4ccccc34)C(=O)NC2=O)c2ccccc21
2. c1ccc(CNc2nc(NCc3ccccc3)c3ccccc3n2)cc1

Solution:
1. 1.135
2. −0.031

* * *

Tested on: ENR+CD organoids (ISC to Paneth cell differentiation)
Assay: Primary screen: basal (non-stimulated) lysozyme secretion LYZ.NS, 2.5-D 384-well ENR+CD organoid differentiation
Type: cell-based, mouse
Conditions: primary screen, dose 2.00 uM
endpoint.label: Z.LYZ.NS (standard z score)
Answers are plain numbers.

Reference set (7 entries):
COc1ccc2c(c1)C(=O)N(CCc1ccc(S(=O)(=O)NC(=O)NC3CCCCC3)cc1)C(=O)C2(C)C; 0.747
CCOC(=O)[C@H]1O[C@@H]1C(=O)N[C@@H](CC(C)C)C(=O)NCCC(C)C; −0.324
O=C(O)c1ccc(N2C(=O)/C(=C\c3ccc(-c4ccc([N+](=O)[O-])cc4)o3)C=C2c2ccccc2)cc1; 1.316
O=c1cc(-c2ccc(O)cc2)oc2cc(O)cc(O)c12; 2.021
Cc1cccc(CC(=O)N2CCc3c2ccc(-c2cn(C)c4ncnc(N)c24)c3F)n1; −0.291
Cc1ccccc1C(C(=O)NC1CCCCC1)N(C(=O)Cn1ccnc1C)c1cccc(F)c1 (centres unmarked); 0.342
CC[C@@H]1C(=O)N(C)c2cnc(Nc3ccc(C(=O)NC4CCN(C)CC4)cc3OC)nc2N1C1CCCC1; −1.168

Then there is this molecule:
Problem: Write down Z.LYZ.NS (standard z score) measured for item Cc1c(C(=O)Nc2ccc(N3C[C@@H](C)O[C@@H](C)C3)nc2)cccc1-c1ccc(OC(F)(F)F)cc1
Solution: 0.094

* * *

Tested on: ENR+CD organoids
Experiment: Primary screen: ATP (CellTiter-Glo 3D, CTG) cell number/viability, 2.5-D 384-well ENR+CD organoids;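 further: compounds given at plating and again on day 3 over a 6-day differentiation from ENR+CV stem-cell-enriched precursors, ATP measured on day 6, plate median as control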
Details: primary screen, dose 0.08 uM
endpoint.label: Z.CTG (standard z score)
One number for each entry.

Reference set (4 entries):
CCO.N#CC(=C(/N)Sc1ccccc1N)/C(C#N)=C(\N)Sc1ccccc1N [U0126-EtOH]; −0.835
O=C(O)CCc1ccc(NCc2cccc(Oc3ccccc3)c2)cc1 [GW9508]; 0.151
NC(=O)c1ccc(I)c([N+](=O)[O-])c1 [Iniparib (B5I-201)]; 0.810
O=C(c1ccc(Nc2nccc(-c3cc4ccccc4s3)n2)cc1)N1CCC(N2CCCC2)CC1 [IKK-16 (IKK Inhibitor VII)]; 0.139

Give me Z.CTG (standard z score) for each of these compounds, listed below.
1. CCCCNc1ncc(-c2ccc(CN3CCOCC3)cn2)c(NC2CCC(O)CC2)n1 (centres unmarked) [UNC2250]
2. Nc1cccc(-c2cc3c(Oc4cccc(O)c4)ncnc3[nH]2)c1 [TWS119]
3. Cc1ccc(NC(=O)c2ccc(CN3CCN(C)CC3)cc2)cc1Nc1nccc(-c2cccnc2)n1 [Imatinib (STI571)]
4. CC(C)(C)Cn1c(N)nc2ccc(-c3[nH]c(C(C)(C)C)nc3-c3ccc(F)cc3)nc21 [LY2228820]
5. O=C(O)c1ccc(N2C(=O)/C(=C\c3ccc(-c4ccc([N+](=O)[O-])cc4)o3)C=C2c2ccccc2)cc1 [4E1RCat]
6. Nc1nc(N)c2nc(-c3cccc(O)c3)c(-c3cccc(O)c3)nc2n1 [TG100-115]
7. Cl.O=C(O)Cc1cccc(OCCCN(Cc2cccc(C(F)(F)F)c2Cl)CC(c2ccccc2)c2ccccc2)c1 [GW3965 HCl]
8. CC1=C(C(=O)Nc2cc3cn[nH]c3cc2F)C(c2ccc(C(F)(F)F)cc2)CC(=O)N1 (centres unmarked) [GSK429286A]

Solution:
[0.633, 0.784, "−0.357", "−0.715", 0.587, "−0.611", 0.330, 1.260]

Give me Z.CTG (standard z score) for each of these compounds, listed below.
1. O=C(NCc1ccccc1)c1csc(Nc2ccncn2)n1 [Thiazovivin]
2. O=C(/C=C\n1cnc(-c2cc(C(F)(F)F)cc(C(F)(F)F)c2)n1)N1CC(F)(F)C1 [KPT-276]
3. COc1ccc2cc(-c3nc(-c4ccc([S+](C)[O-])cc4)[nH]c3-c3ccncc3)ccc2c1 (centres unmarked) [Tie2 kinase inhibitor]

Solution:
0.337
0.399
0.012

Give me Z.CTG (standard z score) for each of these compounds, listed below.
1. O=C(O)CNC(=O)c1c(O)c2ccccc2n(Cc2ccccc2)c1=O [IOX2]
2. CC(C)(C)c1cc(/C=C(\C#N)C(N)=S)cc(C(C)(C)C)c1O [Tyrphostin AG 879]

Solution:
[0.356, "−0.828"]
